Where do the numbers come from? From paper PMC7481482.

# target: human NTPDase2 (Homo sapiens)
# Sequence (Q9Y5L3 1-495): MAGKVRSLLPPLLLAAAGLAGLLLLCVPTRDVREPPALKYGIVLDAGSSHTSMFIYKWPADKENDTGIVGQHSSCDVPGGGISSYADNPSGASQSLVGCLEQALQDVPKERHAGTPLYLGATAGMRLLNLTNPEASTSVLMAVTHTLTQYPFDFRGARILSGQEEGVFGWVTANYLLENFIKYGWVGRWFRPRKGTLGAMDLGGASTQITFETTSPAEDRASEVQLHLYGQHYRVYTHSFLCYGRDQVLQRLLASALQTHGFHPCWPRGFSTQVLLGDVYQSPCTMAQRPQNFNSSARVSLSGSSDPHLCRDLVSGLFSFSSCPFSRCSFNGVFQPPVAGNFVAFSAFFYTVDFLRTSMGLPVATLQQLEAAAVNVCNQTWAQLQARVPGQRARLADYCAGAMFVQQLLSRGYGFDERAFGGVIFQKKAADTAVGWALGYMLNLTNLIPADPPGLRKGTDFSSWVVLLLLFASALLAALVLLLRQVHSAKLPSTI
pIC50: −log10 of the molar value.
Listed here: items and their measured pIC50.
endpoint name: pIC50

cpd_smiles=Nc1c(S(=O)(=O)O)cc(Nc2ccc(Oc3ccc(Br)cc3)cc2)c2c1C(=O)c1ccccc1C2=O target="human NTPDase2 (Homo sapiens)" observed_value=5.76
cpd_smiles=COc1ccc(Sc2ccc(Nc3cc(S(=O)(=O)[O-])c(N)c4c3C(=O)c3ccccc3C4=O)cc2)cc1.[Na+] target="human NTPDase2 (Homo sapiens)" observed_value=6.02
cpd_smiles=Cc1ccc(Sc2ccc(Nc3cc(S(=O)(=O)O)c(N)c4c3C(=O)c3ccccc3C4=O)cc2)c(C)c1 target="human NTPDase2 (Homo sapiens)" observed_value=5.89
cpd_smiles=Nc1c(S(=O)(=O)[O-])cc(Nc2ccc(Sc3ccc(Cl)cc3)cc2)c2c1C(=O)c1ccccc1C2=O.[Na+] target="human NTPDase2 (Homo sapiens)" observed_value=5.97
cpd_smiles=Cc1ccc2ccccc2c1Nc1cc(S(=O)(=O)O)c(N)c2c1C(=O)c1ccccc1C2=O target="human NTPDase2 (Homo sapiens)" observed_value=5.25
cpd_smiles=Nc1c(S(=O)(=O)O)cc(Nc2cc3ccccc3c3ccccc23)c2c1C(=O)c1ccccc1C2=O target="human NTPDase2 (Homo sapiens)" observed_value=6.27
